Source: patent US20170029366A1

Where a name gives a salt, the structure may show the parent alone.
// endpoint IC50 / system GST-LSD1 (Homo sapiens)

Past entries and their recorded results:
- Compound: "CN(C)NCCc1ccccc1 [Compound 9b, 1,1-Dimethyl-2-(2-phenylethyl)hydrazine]"
  Test value: "> 100 µM"
- Compound: "CNNCCCc1ccc(OC)cc1 [Compound 9f, dihydrochloride]"
  Test value: "> 100 µM"

Form: compound = NNCCCN1CCOCC1 [Compound 11, 4-(3-Hydrazinylpropyl) morpholine, reference compound] ; IC50 = > 100 µM

====

- Tgt: GST-LSD1 (Homo sapiens)
- Experimental conditions: GST-LSD1 inactivation efficiency
Readout: k(inact)/Ki(inact) (M⁻¹ s⁻¹)

Examples with answers:
- Molecule: "CS(=O)(=O)Oc1cccc(CCC(=O)Nc2ccc(CCNN)cc2)c1.O=C(O)C(=O)O [Compound 12k]"
  k(inact)/Ki(inact), M⁻¹ s⁻¹: 12700
- Molecule: "NNCCCc1ccc(OCc2ccccc2)cc1 [Compound 14, {3-[4-(Benxyloxy)phenyl]propyl}hydrazine]"
  k(inact)/Ki(inact), M⁻¹ s⁻¹: 3330
- Molecule: "NNCCc1ccc(NC(=O)/C=C/c2ccccc2)cc1.O=S(=O)(O)O [Compound 13]"
  k(inact)/Ki(inact), M⁻¹ s⁻¹: 28300

A = CS(=O)(=O)Oc1ccccc1CCC(=O)Nc1ccc(CCNN)cc1.O=C(O)C(=O)O [Compound 12j]
B = NNCCc1ccc(N(Cc2ccccc2)C(=O)CCCc2ccccc2)cc1.O=C(O)C(=O)O [Compound 12m]
Asked: Between A and B , which one shows the larger k(inact)/Ki(inact) value? Your answer should be the label of the entry you select.
Given back: A
(A: 14700 M⁻¹ s⁻¹, B: 2330 M⁻¹ s⁻¹)

I = Cl.Cl.NNCCc1ccc(NC(=O)c2ccccc2)cc1 [Compound 12a]
II = COc1ccc(CCCNN)cc1.Cl.Cl [Compound 9e]
Asked: Kindly compare I with II and tell me which has the lower k(inact)/Ki(inact) figure. Reply with the label of the item you choose.
Given back: II
(II: 317 M⁻¹ s⁻¹, I: 11700 M⁻¹ s⁻¹)

P = NNCCc1ccc(NC(=O)CCCCc2ccccc2)cc1.O=C(O)C(=O)O [Compound 12e]
Q = CN(C(=O)CCCc1ccccc1)c1ccc(CCNN)cc1.O=C(O)C(=O)O [Compound 12l]
R = Cl.Cl.NNCCCOc1ccccc1 [Compound 10b]
Asked: Order the records so the highest k(inact)/Ki(inact) appears first and the lowest last. Return value: ordered labels per request.
Given back: P, Q, R

a = Cl.Cl.NNCCOc1ccccc1 [Compound 10a]
b = Cl.Cl.NNCCc1ccc(NC(=O)Cc2ccccc2)cc1 [Compound 12b]
Asked: # query: argmin of k(inact)/Ki(inact) over a and b Indicate your choice by writing its label.
Given back: a
(a: 56.7 M⁻¹ s⁻¹, b: 9000 M⁻¹ s⁻¹)

====

- Tgt: UniProt:O60341
- Experimental conditions: GST-LSD1, peroxidase-coupled assay
Readout: k(inact) (min⁻¹)

- Compound: "NNCCCc1ccc(OCc2ccccc2)cc1 [Compound 14, {3-[4-(Benxyloxy)phenyl]propyl}hydrazine]"
  k(inact) [min⁻¹]: 0.18
- Compound: "NNCCc1ccc(NC(=O)CCc2c[nH]c3ccccc23)cc1.O=S(=O)(O)O [Compound 15a]"
  k(inact) [min⁻¹]: 0.21
- Compound: "Cl.Cl.NNCCOc1ccccc1 [Compound 10a]"
  k(inact) [min⁻¹]: 0.15
- Compound: "COc1ccc(CCCC(=O)Nc2ccc(CCNN)cc2)cc1.O=S(=O)(O)O [Compound 12h]"
  k(inact) [min⁻¹]: 0.26
- Compound: "CS(=O)(=O)Oc1ccccc1CCC(=O)Nc1ccc(CCNN)cc1.O=C(O)C(=O)O [Compound 12j]"
  k(inact) [min⁻¹]: 0.18
- Compound: "NNCCc1ccc(NC(=O)CCCc2ccc(Cl)cc2)cc1.O=S(=O)(O)O [Compound 12f]"
  k(inact) [min⁻¹]: 0.17
- Compound: "COc1ccc(CCCNN)cc1.Cl.Cl [Compound 9e]"
  k(inact) [min⁻¹]: 0.15
- Compound: "NNCCc1ccc(NC(=O)CCCc2ccc([N+](=O)[O-])cc2)cc1.O=S(=O)(O)O [Compound 12i]"
  k(inact) [min⁻¹]: 0.21
- Compound: "NNCCc1ccc(NC(=O)CCc2ccccc2)cc1.O=S(=O)(O)O [Compound 12c]"
  k(inact) [min⁻¹]: 0.24
